- TARGET_SYSTEM: N-terminally GST-tagged human full length recombinant Mps-1 kinase (Homo sapiens, UniProt P33981)
- Construct: N-terminally GST-tagged human full length recombinant Mps-1 kinase; purchased Invitrogen, Karslruhe, Germany PV4071
- Sequence (P33981 whole entry): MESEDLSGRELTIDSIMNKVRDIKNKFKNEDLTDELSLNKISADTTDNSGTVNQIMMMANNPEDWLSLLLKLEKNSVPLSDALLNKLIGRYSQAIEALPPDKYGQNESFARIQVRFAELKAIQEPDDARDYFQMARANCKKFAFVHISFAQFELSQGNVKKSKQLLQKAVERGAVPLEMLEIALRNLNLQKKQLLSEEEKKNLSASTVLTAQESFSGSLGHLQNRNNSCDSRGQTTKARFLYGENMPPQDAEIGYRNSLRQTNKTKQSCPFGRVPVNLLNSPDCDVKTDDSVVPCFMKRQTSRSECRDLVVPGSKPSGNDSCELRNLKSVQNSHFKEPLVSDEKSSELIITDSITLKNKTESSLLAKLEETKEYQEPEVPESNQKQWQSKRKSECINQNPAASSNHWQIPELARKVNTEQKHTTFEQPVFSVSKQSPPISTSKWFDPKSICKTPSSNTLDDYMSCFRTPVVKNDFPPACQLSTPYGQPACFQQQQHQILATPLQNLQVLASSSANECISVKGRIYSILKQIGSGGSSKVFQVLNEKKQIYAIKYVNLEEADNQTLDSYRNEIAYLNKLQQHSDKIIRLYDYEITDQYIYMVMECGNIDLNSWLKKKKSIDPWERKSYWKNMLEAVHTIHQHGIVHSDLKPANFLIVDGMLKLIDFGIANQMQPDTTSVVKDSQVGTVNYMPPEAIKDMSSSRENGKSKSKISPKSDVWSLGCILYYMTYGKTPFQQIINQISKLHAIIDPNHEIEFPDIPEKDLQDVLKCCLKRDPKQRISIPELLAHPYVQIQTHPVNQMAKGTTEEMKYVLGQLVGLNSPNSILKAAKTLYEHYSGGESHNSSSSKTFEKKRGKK
- ASSAY_COMMENT: Mps-1 kinase assay (TR-FRET)
- Type: biochemical
- SETTINGS: Mps1 IC50 [nM], 10 μM ATP, 1 μM peptide substrate, 60 min at 22° C.
MEASUREMENT_NAME: IC50 (nM)

Cc1cc(-c2cnc3c(NCCS(=O)(=O)O)cc(Oc4cccc(F)c4)nn23)ccc1C(=O)NC1CC1 | 0.7
Cc1cc(-c2cnc3c(NCC(C)C)cc(Cl)nn23)ccc1C(=O)NC1CC1 | 29.5
COc1cc(C(=O)NC2CC2)ccc1-c1cnc2c(NCC(C)(C)O)cc(Sc3ccccc3)nn12 [Example 51A] | 58
c1cc(-c2cc(NCC3CCCCO3)c3ncc(-c4ccc(-c5cnc(C6CC6)[nH]5)cc4)n3n2)ccn1 (racemic) | 80.2
COc1ccccc1-c1cc(NCC(C)C)c2ncc(-c3ccc(C(=O)NC4CC4)cc3)n2n1 | 3.3

[I] COc1cc(C(=O)NC2CC2)ccc1-c1cnc2c(NCCC(F)(F)F)cc(-c3ccc(F)cc3)nn12
[II] CCOc1ccc(-c2cc(NCC(C)(C)O)c3ncc(-c4ccc(C(=O)NC5CC5)c(C)c4)n3n2)cn1
[III] Cc1cc(-c2cnc3c(NCC(C)(C)O)cc(SC4CCCCC4)nn23)ccc1C(=O)NC1CC1
Highest IC50 first, then in falling order down to the smallest. Answer format: the labels, ordered as requested. II, I, III
